System: MS2 coat protein
experiment: apparent KD of MS2 coat protein; designed switch direction (-1 OFF switch, 1 ON switch): -1; higher = weaker reporter binding
study conditions: input ligand: FMN 200 uM
recorded metric: apparent KD of MS2 coat protein (nM)
Provide the reading as a plain figure in nM.

Short answer please: apparent KD of MS2 coat protein, MS2 coat protein, entry CUUGUGUUAGGAUAUGUUAAGCCACCAACCAGUGGAUCAGGACAGAAGGAACAUGAGGAUCACCCAUGUAAAAG [Inedar] (Eterna round: R97, puzzle: Exclusion 4) 25.3

Next record, please: ACAUGUUAUGUAGGAUAUUGGACACAUGAGGAUCACCCAUGUACCCGGAGGCUUUACUAUGAGUUCGAGAAGGGUAUGAACAUG [Ex NG2 #68] (Eterna round: R96, puzzle: Exclusion NG 2) 39.8

Next record, please: CUAAAUCAUGUAGGAUAUGCGUGGCGAAGCUAUGCAGAAGGACAUGAGGAUCACCCAUGUCAUUCCGUCUGCGUACAGACGGGA [Mat - Exclusion NG 1 - Mod of JL - D48] (Eterna round: R96, puzzle: Exclusion NG 1) 133

Next record, please: UACCUACAUGAGGAUCACCCAUGUCAGGAUAUCCGUGUGAACGAGUCGUUACACAGGCGGAGAAGGGACAUCGG [Eternabot (L1) Solution 65] (Eterna round: R97, puzzle: Exclusion 1) 94.5

Next record, please: UUAUUCAGAGGAUAUGCGCAUAGAUAAGACUUUUUUUUUUAACAUGAGGAUCACCCAUGUAGAAGGCUGUAAUU [Ex2 #55] (Eterna round: R97, puzzle: Exclusion 2) 18.1

* * *

Test system: MS2 coat protein
experiment: apparent KD of MS2 coat protein; higher = weaker reporter binding
study conditions: Eterna round: R107; input ligand: tryptophan 2.4 mM
Note to self: values exactly at 30 nM are Met. So apparent KD of MS2 coat protein at or above 30 nM is Met, below is Not met.

API: above_or_equal(metric=apparent KD of MS2 coat protein, cutoff=30 nM) for item GAAUCUACAAACGAUACCAGAUCCGGCUGCCACAUGAGGAUCACCCAUGUCUAGCGACUCAUCCCUUGGCAGCGUGUGCAUCCCG [theeternabot_sameState_MS2_Theo_B_37] Met

Next record, please: CGGUUUGUGAUGGAUACCAGCAGAGAAAAUGUUUAUCCUAACAUGAGGAUCACCCAUGUGUGCCCUUGGCAGCUGUUGUGGGCUG [8.W] Met

Next record, please: CCUCGUGCAACAUGAGGAUCACCCAUGUACCGAGGACCGGUACGGCCGCCACUCGAAAACGAGUACCAUUAGCGAAAGCUGAUGG [Trp A SS mod1] Not met

Next record, please: GGGCAAGAGGGAAGGAGCGUUAGCUGAGUCACAUGAGGAUCACCCAUGUCGCACGUAGUAUGACAGGUAGGUCGCCCUCUACCCU [SS-ArgB15] Not met

Next record, please: GGUCUCUGGAGCGAUACCAGCUUGAUCGUACUAGCCUGGUACAUGAGGAUCACCCAUGUAAGCCCUUGGCAGCGCUCCAGAGACC [#1 Exclusion - Theophylline B Attempt #8 (HarryS)] Not met

Next record, please: UUGGUAGGACAGCUCAUAUAAGCAUGUGAUACCAGCUAGAAAACUAGCCCUUGGCAGCACUUUACAUGAGGAUCACCCAUGUCCC [EThA NP+V+V2 #2 +-Same Structure] Met

Next record, please: UGUAUGGACUGAAGGAGCGCCUCAAAAUAACAUGAGGAUCACCCAUGUGGCGAAAGCCAAGGGCAGGUAGGUCGCAGUCCAUACU [ArgBX 4 #StaticStem #MS2Late] Met

Next record, please: AGGACAUCGGGAAGGAGCGCAUCCAAACCACACAUGAGGAUCACCCAUGUAUAAAUAUGCAUGCAGGUAGGUCGCCCGGUGUCUC [Veaza] Met

Next record, please: ACCUGUACGAAAAGUGCAGGACAUGGAAAUCGAGGACCGGUACGGCCGCCACUCGUAUAAAACAAGUGGAUCACCCUUGUCCAUG [TrypAS 2 #AlternativeMS2 #Zipper #StaticStem] Met

Next record, please: GUACAUGAGGAUCACCCAUGUAUAGUUGAAGGAGCGACCAGAGGGUCAGGUAGGUCGCAGCACAUGGUGUAAACCCGUGUAUGCC [#1 Exclusion - Arginine A Attempt #22 (Inspired by Pi)] Not met

Next record, please: UACAUGAGGAUCACCCAUGUAAGGUGAGAUACCAGUGAUAUGCUACACCCUUGGCAGCUCACGGCUGACUAUCAGCACACAUGUA [Theo A SS t1] Not met

Next record, please: GUUGUAUACUCGGCCGCCACUGAGAGAGUCAUGUAAACAUGAGGAUCACCCAUGUAAUAUAUAUACAGGACCGGGAGUGUGGUAA [4.G] Not met

Next record, please: AUUUAUGGUCGUGAUACCAGACAUACAUGAGGAUCACCCAUGUGAAAUAACAUAAUUUAGGUCCCUUGGCAGCACUUUUUAAUUA [JR_Nu_SSTheophyB_Sub020] Met

Next record, please: ACUCGGCAUCAUGAUACCAGAGAGCCCGAGAUGCCUUAACACAUGAGGAUCACCCAUGUACUCCCUUGGCAGCAUCAUGCACUAU [theeternabot_exclusion_MS2_Theo_B_31] Not met

Next record, please: UGGCAAGAGGGAAGGAGCGUCAGCUGAGUCACAUGAGGAUCACCCAUGUAGCACAUAGUGUGACAGGUAGGUCGCCCUCUGCCGU [SS-ArgB10] Not met

Next record, please: GAGCUGAUGUAGGCCGGAUAUCCGGGAGAUACCAGUACAGAAAUGUACCCUUGGCAGCUCUUUCUUACAUGAGGAUCACCCAUGU [Ex Theophylline A 27] Not met

Next record, please: CGACGAGACCUGGAUACCAGCGACAUGAGGAUCACCCAUGUAUGUGGAUCAGCCAUGAUAUGCCCUUGGCAGCCACCGAGGUCGG [PPPMULLIN] Not met

Next record, please: AAUAAUAGGUGAUCUUAAGUCGUACCGUAACGAGGACCGGUACGGCCGCCACUCGAACAUGAGGAUCACCCAUGUAUGUAUGAUA [whbob_SS_trypto A_f5] Met

Next record, please: GGAUGGAACUCGGCCGCCACUGGUGAUCCUAAUGUACAUGAGGAUCACCCAUGUACAUGAGAAGAUAGGACCGGGAGAUAAGGGA [Tryptophan B V4 (+4G)] Not met

Next record, please: `UGUAUGGACUGAAGGAGCGGGUUGAUAACAUGAGGAUCACCCAUGUAAAAGGCGAAAGCCGCCCAGGUAGGUCGCAGUCCAUACU` Not met

Next record, please: ACUCGGUGUUUGUUGCUCCGAGUACGUGAUACCAGUUAAUUUUAUGGCCCUUGGCAGCAUGGGACAUGAGGAUCACCCAUGUUUA [#04 SameState-TheophyllineA] Met

Next record, please: AGACAUGUAAGAUAAAUGACUUAUACAGAUACCAGACUAGUCAAUGUCCCUUGGCAGCUGCAUAACAUGAGGAUCACCCAUGUAA [JR_ExcTheophyA_Sub009] Not met
